These measurements were taken from the supplement of paper PMC6522484.

Tested on: HCT116
EXPERIMENT SUMMARY: cell viability (CellTiter-Glo) relative to plate median (fraction of plate median); higher = more viable cells
MEASUREMENT PARAMETERS: 5 µM; treatment time 24 h; reporter: TCF4/Wnt
METRIC: cell viability
Give bare numbers.

These solved cases illustrate the format of a correct answer.
{"columns": ["MOLECULE", "ASSAY TARGET", "cell viability"],
 "data": [
  ["NC(=O)NC(=O)Cc1ccccc1", "HCT116", 1.16],
  ["COC(=O)CC[C@@H](C)[C@H]1CC[C@H]2[C@@H]3CC[C@@H]4C[C@H](O)CC[C@]4(C)[C@H]3C[C@H](O)[C@]12C", "HCT116", 1.02],
  ["C[C@]12CC[C@@H](O)C[C@H]1CCc1ccccc12 [3alpha-HYDROXY-4,4-BISNOR-8,11,13-PODOCARPATRIENE]", "HCT116", 1.01]
]}

Query molecule follows.
Task: Look up cell viability for this molecule: Cc1cc(N)c2ccccc2[n+]1CCCCCCCCCC[n+]1c(C)cc(N)c2ccccc21
Output: 0.907

====

System: SW480
EXPERIMENT SUMMARY: cell viability (CellTiter-Glo) relative to plate median (fraction of plate median); higher = more viable cells
MEASUREMENT PARAMETERS: 5 µM; treatment time 24 h; reporter: 7TFP
Doc: threshold 1 (exclusive). Items with cell viability beneath it return fulfilled; others return not fulfilled.

Task: In the record for COC(=O)Nc1nc2cc(Sc3ccccc3)ccc2[nH]1 , is cell viability less than 1?
Output: not fulfilled

Task: Item: COc1cc(O)c(C(=O)/C=C/c2ccc(OC)c(O)c2)c(OC)c1
Output: not fulfilled

Task: Entry CN(C)CCC=C1c2ccccc2COc2ccccc21 please
Output: fulfilled

Task: Now consider O=c1cc(-c2ccccc2)oc2cccc(O)c12 .
Output: not fulfilled

Task: Try this compound next: CC[N+](CC)(CC)CCOc1cccc(OCC[N+](CC)(CC)CC)c1OCC[N+](CC)(CC)CC
Output: fulfilled

Task: Lookup C#CC1(O)CC[C@H]2[C@@H]3CCC4=CC(=O)CC[C@@H]4[C@H]3CC[C@@]21CC (mixture of isomers)
Output: fulfilled

Task: And then COc1ccc2c(=O)c(CC(=O)O)coc2c1 , what is it?
Output: fulfilled

Task: Query COC(=O)C1=C(C)NC(C)=C(C(=O)OCC(C)C)C1c1ccccc1[N+](=O)[O-] (centres undefined) next
Output: fulfilled

====

Test system: SW480
EXPERIMENT SUMMARY: cell viability (CellTiter-Glo) relative to plate median (fraction of plate median); higher = more viable cells
MEASUREMENT PARAMETERS: 5 µM; treatment time 24 h; reporter: 7TFP
METRIC: cell viability

Batch: cell viability for all items listed.
1. CC(C)OC(=O)C(C)(C)Oc1ccc(C(=O)c2ccc(Cl)cc2)cc1
2. N[C@@H](CCC(=O)N[C@@H](CS)C(=O)NCC(=O)O)C(=O)O
3. CC(=O)OC(C)(C)[C@@H]1Cc2cc3ccc(=O)oc3cc2O1

Output:
1: 1.04; 2: 1.02; 3: 1.03

====

Test system: DLD1
EXPERIMENT SUMMARY: TCF/Wnt firefly luciferase reporter signal relative to plate median (fraction of plate median); higher = higher Wnt reporter signal
MEASUREMENT PARAMETERS: 5 µM; treatment time 24 h; reporter: 7TFP
Decision: TCF/Wnt firefly luciferase reporter signal compared against 1; not below it gives criterion met, below it gives criterion not met.

Here are 2 compounds together with their reported answers.
{"columns": ["SMILES TEXT", "ASSAY TARGET", "ASSIGNED LABEL"],
 "data": [
  ["O=C(CCCCC(=O)Nc1c(I)cc(I)c(C(=O)O)c1I)Nc1c(I)cc(I)c(C(=O)O)c1I", "DLD1", "criterion met"],
  ["NCC[C@H](O)C(=O)N[C@@H]1C[C@H](N)[C@@H](O[C@H]2O[C@H](CN)[C@@H](O)[C@H](O)[C@H]2O)[C@H](O)[C@H]1O[C@H]1O[C@H](CO)[C@@H](O)[C@H](N)[C@H]1O", "DLD1", "criterion not met"]
]}

Next item in the queue.
Task: Is TCF/Wnt firefly luciferase reporter signal for C=C(C)[C@@H]1CC=C(C(=O)O)CC1 at or above 1?
Output: criterion met
